testSystem: UniProtKB P30550
Sequence (P30550 whole entry): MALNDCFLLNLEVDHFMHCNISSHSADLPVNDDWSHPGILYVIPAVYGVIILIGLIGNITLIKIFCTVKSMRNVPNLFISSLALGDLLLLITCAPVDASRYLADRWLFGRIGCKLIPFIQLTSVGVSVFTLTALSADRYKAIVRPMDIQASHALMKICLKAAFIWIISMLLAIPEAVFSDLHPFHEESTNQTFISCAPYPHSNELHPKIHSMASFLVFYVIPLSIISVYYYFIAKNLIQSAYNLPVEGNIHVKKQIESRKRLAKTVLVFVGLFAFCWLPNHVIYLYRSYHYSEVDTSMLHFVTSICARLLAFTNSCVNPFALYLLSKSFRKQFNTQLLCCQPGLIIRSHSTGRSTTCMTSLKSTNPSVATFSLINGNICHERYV
parameter: Ki (nM)
Number in nM, nothing else.

-- ask Which Ki value is on record for `COc1ccc(C2(CNC(=O)[C@](C)(Cc3c[nH]c4ccccc34)NC(=O)Nc3ccc([N+](=O)[O-])cc3)CCCCC2)nc1` ?
-- reply 66

* * *

testSystem: FPR1 (Homo sapiens, UniProt P21462)
Sequence (P21462 whole entry): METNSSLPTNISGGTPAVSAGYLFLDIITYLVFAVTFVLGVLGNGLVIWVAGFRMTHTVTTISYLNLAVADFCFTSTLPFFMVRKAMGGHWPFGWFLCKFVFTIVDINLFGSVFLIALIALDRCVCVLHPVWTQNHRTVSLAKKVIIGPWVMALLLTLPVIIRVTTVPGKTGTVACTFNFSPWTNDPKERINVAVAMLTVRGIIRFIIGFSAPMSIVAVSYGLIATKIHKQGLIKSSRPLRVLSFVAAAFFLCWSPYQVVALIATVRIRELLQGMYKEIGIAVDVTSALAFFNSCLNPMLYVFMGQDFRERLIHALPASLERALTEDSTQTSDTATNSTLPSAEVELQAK
experimentalDetails: PathHunter β-arrestin recruitment, FPR1-CHO-K1 cells
runParameters: read-out: β-arrestin recruitment EC50
parameter: EC50

-- ask Which EC50 value is on record for `COc1ccc(C2(CNC(=O)[C@](C)(Cc3c[nH]c4ccccc34)NC(=O)Nc3ccc([N+](=O)[O-])cc3)CCCCC2)nc1` ?
-- reply 3.8 µM

* * *

testSystem: FPR2 (Homo sapiens)
Sequence (P25090 1-351): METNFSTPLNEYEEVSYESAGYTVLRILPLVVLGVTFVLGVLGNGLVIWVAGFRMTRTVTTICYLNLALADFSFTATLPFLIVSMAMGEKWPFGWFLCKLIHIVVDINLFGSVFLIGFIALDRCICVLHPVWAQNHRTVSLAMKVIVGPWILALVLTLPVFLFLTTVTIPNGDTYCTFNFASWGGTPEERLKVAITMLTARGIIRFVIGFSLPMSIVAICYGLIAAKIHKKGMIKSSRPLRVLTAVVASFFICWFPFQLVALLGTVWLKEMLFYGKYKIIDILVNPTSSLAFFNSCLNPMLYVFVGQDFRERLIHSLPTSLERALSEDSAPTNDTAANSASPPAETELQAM
experimentalDetails: PathHunter β-arrestin recruitment, FPR2-CHO-K1 cells
runParameters: read-out: β-arrestin recruitment EC50
parameter: EC50

C[C@@](Cc1c[nH]c2ccccc12)(NC(=O)Nc1ccc([N+](=O)[O-])cc1)C(=O)NCC1(c2ccccn2)CCCCC1 | 11.1 µM

We now examine a further molecule.
-- ask Which EC50 value is on record for `COc1ccc(C2(CNC(=O)[C@](C)(Cc3c[nH]c4ccccc34)NC(=O)Nc3ccc([N+](=O)[O-])cc3)CCCCC2)nc1` ?
-- reply 8.8 µM

Recorded values, source paper PMC3553303.
